All values here come from patent US20240409648A1.

Would you kindly list IC90 pNFκB, trun-IL-36a, BaF/3 cynomolgus IL-36R cells for each of these binders?
Target: cynomolgus IL-36R on BaF/3 cells (cynomolgus)
Experiment: cell-based or functional assay

IC90 pNFκB, trun-IL-36a, BaF/3 cynomolgus IL-36R cells measured on antibody 172C8 (antibody, V domains shown) VH: EVQLQQSGPELVKPGASVKLSCKASGYTFTDNYMNWVRQSHGKSLEWIGRVNPSNGDTKYNQNFKGKATLTVDKSLSTAYMQLNGLTSEDSAVYYCGRTKNFYSSYSYDDAMDYWGQGTSVTVSS VL: DIQMTQSPASQSASLGESVTFTCLASQTIGTWLAWYQQRPGKSPQLLIYAATSLADGVPSRFSGSGSGTQFSFNIRSLQAEDFASYYCQQVYTTPLTFGGGTKLEIK = > 4000 nM

IC90 pNFκB, trun-IL-36a, BaF/3 cynomolgus IL-36R cells measured on Mouse 78C8 (antibody 78C8) (antibody, V domains shown) VH: QVQLKESGPVLVAPSQSLSITCTVSGFSLTKFGVHWIRQTPGKGLEWLGVIWAGGPTNYNSALMSRLTISKDISQSQVFLRIDSLQTDDTAMYYCAKQIYYSTLVDYWGQGTSVTVSS VL: DVLLTQTPLSLPVSLGDQASISCRSSQNIVHSNGNTYLQWYLQKPGQSPKLLIYKVSNRFSGVPDRFSGSGSGTDFTLKISRVEAEDLGVYYCFQGSHVPFTFGAGTKLELK = 1 nM

IC90 pNFκB, trun-IL-36a, BaF/3 cynomolgus IL-36R cells measured on Mouse 33D10 (antibody 33D10) (antibody, V domains shown) VH: QVQLQQSGTELLKPGASVKLSCKASGNTVTSYWMHWVKQRPGQGLEWIGEILPSTGRTNYNENFKGKAMLTVDKSSSTAYMQLSSLASEDSAVYYCTIVYFGNPWFAYWGQGTLVTVSA VL: QIVLTQSPAIMSASLGERVTMTCTASSSVSSSYLHWYQKKPGSSPKLWVYSTSNLASGVPVRFSGSGSGTSYSLTISSMEAEDAATYYCHQHHRSPVTFGSGTKLEMK = > 4000 nM
